# Test system: Saccharomyces cerevisiae;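 further: PSI is a weighted mean of sequencing reads over stability bins, variants kept only with over 10 reads, mCherry proximal and sfGFP distal, peptide attached via GGGS linker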
# EXPERIMENTAL_DETAILS: protein stability index of tFT-peptide fusion (C-terminal peptide) (PSI (0-1 scale)); higher = more stable (slower turnover)
# ASSAY_CONTEXT: genetic background: wild type; temperature: 30 C
What protein stability index was measured for each of the following?
Numbers only.

VHGAQICCIPWY | 0.699
LRGVGGAGVFFG | 0.675
VGRGPSAPVSCV | 0.726
LEGRFLACRGIC | 0.264
SVPPPLSPPPPP | 0.668
LFLEGWIRKGVR | 0.743
KGSLVLGSKCCR | 0.681
FVSTSFPPWFSL | 0.684

Dear colleague, could you please provide protein stability index for the sequences listed below?
1. GYMFLSFLKLCW
2. PLGPRFLPLVLP
3. VHHFCSPPLPPP

[A]
1. 0.599
2. 0.682
3. 0.732

Dear colleague, could you please provide protein stability index for the sequences listed below?
1. PTHCTPRRRTRR
2. NKNKDNNEIVKK
3. PPPTSPPRPASP

[A]
0.676
0.677
0.697

Dear colleague, could you please provide protein stability index for the sequences listed below?
1. GILLLLISRVVF
2. GTKGGPSGLEPP
3. ARGPCRGSGSFG
4. GSWGWHVRGSGV
5. GNHNGKIILDNR

[A]
1. 0.371
2. 0.713
3. 0.631
4. 0.598
5. 0.679

This collection of values is drawn from the supplement of paper PMC10724198.
